Measured values drawn from ChEMBL document CHEMBL4033684 for this set.

This listing pairs compounds with measured IC50.
# System Under Test: Glucocorticoid receptor (Homo sapiens)
# Sequence (P04150 whole entry): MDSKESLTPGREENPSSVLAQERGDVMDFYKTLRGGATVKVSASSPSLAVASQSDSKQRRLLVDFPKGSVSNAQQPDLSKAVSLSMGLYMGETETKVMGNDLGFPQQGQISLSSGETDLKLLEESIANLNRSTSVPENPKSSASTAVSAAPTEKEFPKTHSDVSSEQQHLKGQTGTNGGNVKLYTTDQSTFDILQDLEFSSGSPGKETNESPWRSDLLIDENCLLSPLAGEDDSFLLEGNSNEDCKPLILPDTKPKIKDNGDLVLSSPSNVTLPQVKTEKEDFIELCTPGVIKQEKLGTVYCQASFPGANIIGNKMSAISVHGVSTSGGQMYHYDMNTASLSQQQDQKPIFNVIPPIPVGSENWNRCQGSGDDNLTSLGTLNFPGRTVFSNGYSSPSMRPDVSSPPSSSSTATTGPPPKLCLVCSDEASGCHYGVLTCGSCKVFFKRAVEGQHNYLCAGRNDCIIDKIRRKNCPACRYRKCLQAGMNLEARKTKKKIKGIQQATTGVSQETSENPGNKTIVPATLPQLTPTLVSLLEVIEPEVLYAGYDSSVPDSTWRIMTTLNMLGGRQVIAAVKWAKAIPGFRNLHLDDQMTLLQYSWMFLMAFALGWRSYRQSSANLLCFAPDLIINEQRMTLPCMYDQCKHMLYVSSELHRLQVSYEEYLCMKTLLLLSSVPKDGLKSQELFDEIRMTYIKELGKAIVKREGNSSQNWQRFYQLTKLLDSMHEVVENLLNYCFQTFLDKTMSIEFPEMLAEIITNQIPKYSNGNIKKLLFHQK
# Method Notes: Antagonist activity at human GRalpha expressed in HEK293 cells assessed as inhibition of dexamethasone-induced response after 24 hrs by luciferase reporter gene assay
Experimental Readout: IC50 (µM)

Nc1ccc(S(=O)(=O)N(Cc2ccccc2)c2ccc(Oc3ccccc3)cc2)cc1    3.15
N#Cc1ccc(S(=O)(=O)N(Cc2ccc(Br)cc2)c2ccc(Oc3ccccc3)cc2)cc1    7.87
Cc1ccc(S(=O)(=O)N(Cc2ccccc2)c2ccc(Oc3ccccc3)cc2)cc1    2.02
COC(=O)Nc1ccc(S(=O)(=O)N(Cc2ccccc2)c2ccc(Oc3ccccc3)cc2)cc1    2.11
